Target: human D2R/β-arrestin (Homo sapiens (Human), UniProt P14416)
Sequence (P14416 whole entry): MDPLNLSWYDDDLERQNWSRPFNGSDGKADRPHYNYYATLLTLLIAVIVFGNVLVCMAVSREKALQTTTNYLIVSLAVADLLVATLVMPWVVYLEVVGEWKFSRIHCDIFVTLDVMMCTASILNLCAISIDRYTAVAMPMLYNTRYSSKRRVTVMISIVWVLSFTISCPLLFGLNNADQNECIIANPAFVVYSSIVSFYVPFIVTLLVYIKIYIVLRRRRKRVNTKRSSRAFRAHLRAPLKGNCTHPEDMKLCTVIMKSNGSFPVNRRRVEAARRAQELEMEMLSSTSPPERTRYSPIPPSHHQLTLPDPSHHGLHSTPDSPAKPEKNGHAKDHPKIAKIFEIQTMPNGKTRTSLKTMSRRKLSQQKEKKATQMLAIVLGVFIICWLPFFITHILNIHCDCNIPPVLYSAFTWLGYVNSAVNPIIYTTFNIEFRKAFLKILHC
Test: Gi/cAMP agonist assay (Lance Ultra cAMP, Forskolin)
Format: cell-based
Conditions: CHO-K1 cell line expressing human D2R/β-arrestin
Experimental: The assays can be performed using proper detection reagents either prepared using routine methods known in the art or commercially available (e.g., PE Lance Ultra cAMP kit (TRF0263)). Cells are grown to the necessary confluence and then detached. The cells are then centrifuged, washed, resuspended, and seeded into a container (e.g., 384-well plate). […] Read-out (e.g., luminescence, or fluorescence) is detected using standard equipment. […]
EC50 values, listed per item

compound	EC50
O=C(NC(c1ccc(Cl)cc1)c1ccccn1)C1CCN(CCOc2ccc3cccnc3c2)CC1 (single isomer, unassigned) [Compound 16b]	1000 to 10000 nM
O=C(NC(c1ccc(F)cc1)c1ccccn1)C1CCN(CCOc2ccccc2C(F)(F)F)CC1 (single isomer, unassigned) [Compound 52a]	> 30000 nM
CC1(C(=O)NC(c2ccc(F)cc2)c2ccccn2)CCN(CCOc2ccccc2)CC1 (single isomer, unassigned) [Compound 69a]	100 to 1000 nM

The reported numbers originate from patent US10752588B2.
